- Test system: Lactobacillus confusus
- experiment.description: MIC, agar dilution on brain-heart infusion agar
- Assay type: cell-based
recorded.metric: log10 MIC (log10 of the value in µg/mL)
Quick note: numbers are log10 of MIC, with µg/mL as the unit.

CNC(CC(C)C)C(=O)NC1C(=O)NC(CC(N)=O)C(=O)NC2C(=O)NC3C(=O)NC(C(=O)NC(C(=O)O)c4cc(O)cc(O)c4-c4cc3ccc4O)C(OC3CC(C)(N)C(O)C(C)O3)c3ccc(c(Cl)c3)Oc3cc2cc(c3OC2OC(CO)C(O)C(O)C2OC2CC(C)(NCc3ccc(Oc4ccccc4)cc3)C(O)C(C)O2)Oc2ccc(cc2Cl)C1O (centres unmarked) [Compound 4, p-phenoxybenzyl.cndot.A82846B] | 1.51
CNC(CC(C)C)C(=O)NC1C(=O)NC(CC(N)=O)C(=O)NC2C(=O)NC3C(=O)NC(C(=O)NC(C(=O)O)c4cc(O)cc(O)c4-c4cc3ccc4O)C(OC3CC(C)(N)C(O)C(C)O3)c3ccc(c(Cl)c3)Oc3cc2cc(c3OC2OC(CO)C(O)C(O)C2OC2CC(C)(NCc3ccc(Sc4ccccc4)cc3)C(O)C(C)O2)Oc2ccc(cc2Cl)C1O (centres unmarked) | 1.20
CNC(CC(C)C)C(=O)NC1C(=O)NC(CC(N)=O)C(=O)NC2C(=O)NC3C(=O)NC(C(=O)NC(C(=O)O)c4cc(O)cc(O)c4-c4cc3ccc4O)C(OC3CC(C)(N)C(O)C(C)O3)c3ccc(c(Cl)c3)Oc3cc2cc(c3OC2OC(CO)C(O)C(O)C2OC2CC(C)(NCc3ccc(-c4ccc(-c5ccccc5)cc4)cc3)C(O)C(C)O2)Oc2ccc(cc2Cl)C1O (centres unmarked) [Compound 36, 4-[4-biphenyl]benzyl] | 1.51
CNC(CC(C)C)C(=O)NC1C(=O)NC(CC(N)=O)C(=O)NC2C(=O)NC3C(=O)NC(C(=O)NC(C(=O)O)c4cc(O)cc(O)c4-c4cc3ccc4O)C(OC3CC(C)(N)C(O)C(C)O3)c3ccc(c(Cl)c3)Oc3cc2cc(c3OC2OC(CO)C(O)C(O)C2OC2CC(C)(NCc3ccc(OC(F)(F)F)cc3)C(O)C(C)O2)Oc2ccc(cc2Cl)C1O (centres unmarked) | 1.20

Alright, here's another molecule for you.
q: Return the recorded log10 MIC value; entry: CNC(CC(C)C)C(=O)NC1C(=O)NC(CC(N)=O)C(=O)NC2C(=O)NC3C(=O)NC(C(=O)NC(C(=O)O)c4cc(O)cc(O)c4-c4cc3ccc4O)C(OC3CC(C)(N)C(O)C(C)O3)c3ccc(c(Cl)c3)Oc3cc2cc(c3OC2OC(CO)C(O)C(O)C2OC2CC(C)(NCc3cccc(Oc4ccccc4)c3)C(O)C(C)O2)Oc2ccc(cc2Cl)C1O (centres unmarked)
a: 1.81
